# SYSTEM_TESTED: human β-cardiac myosin (Homo sapiens, UniProt P12883)
# Sequence (P12883 1-808): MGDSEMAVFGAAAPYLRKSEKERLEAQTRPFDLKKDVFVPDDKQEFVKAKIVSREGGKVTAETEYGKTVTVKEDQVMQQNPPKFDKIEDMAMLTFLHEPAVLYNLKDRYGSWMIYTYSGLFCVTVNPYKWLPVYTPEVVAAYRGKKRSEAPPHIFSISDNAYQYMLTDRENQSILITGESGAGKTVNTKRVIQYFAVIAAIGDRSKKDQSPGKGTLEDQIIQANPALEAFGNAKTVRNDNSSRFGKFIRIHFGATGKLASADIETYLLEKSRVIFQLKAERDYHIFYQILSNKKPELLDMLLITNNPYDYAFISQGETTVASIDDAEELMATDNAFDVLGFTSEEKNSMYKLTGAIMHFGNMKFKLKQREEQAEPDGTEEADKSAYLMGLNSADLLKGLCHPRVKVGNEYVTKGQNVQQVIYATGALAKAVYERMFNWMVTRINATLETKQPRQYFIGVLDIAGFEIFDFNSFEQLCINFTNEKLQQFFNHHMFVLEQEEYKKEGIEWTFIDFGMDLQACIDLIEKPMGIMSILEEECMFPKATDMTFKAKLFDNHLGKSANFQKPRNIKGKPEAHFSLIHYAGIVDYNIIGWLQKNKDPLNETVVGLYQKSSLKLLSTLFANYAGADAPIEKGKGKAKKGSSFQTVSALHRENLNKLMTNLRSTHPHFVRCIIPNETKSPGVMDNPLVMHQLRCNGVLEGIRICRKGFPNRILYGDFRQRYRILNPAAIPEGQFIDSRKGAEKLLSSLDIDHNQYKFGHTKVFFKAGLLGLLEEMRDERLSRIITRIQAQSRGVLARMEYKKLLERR
# Sequence (P08590 2-195 partner): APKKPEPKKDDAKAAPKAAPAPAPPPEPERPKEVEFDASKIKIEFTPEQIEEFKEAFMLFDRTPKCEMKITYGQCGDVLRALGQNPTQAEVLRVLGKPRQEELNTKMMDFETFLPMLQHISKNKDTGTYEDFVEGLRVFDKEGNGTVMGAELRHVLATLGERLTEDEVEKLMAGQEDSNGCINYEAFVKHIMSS
MEASUREMENT_TYPE: Kd
Entry format: amount then unit.

Exercise: Which measured Kd belongs to COC(=O)N1CCN(Cc2cccc(NC(=O)Nc3ccc(C)nc3)c2F)CC1 [OM, omecamtiv mecarbil] , tested on human β-cardiac myosin (Homo sapiens, UniProt P12883)?
Key: 0.31 µM
